Provenance of the data: patent US20160310583A1

Target: T1, HLA-A*02:01 (human)
T1 construct: whole, on cells; MHC class I molecule, empty until peptide is added; detected with FITC anti-HLA-A02 antibody BB7.2
Assay: MHC class I stabilization on T2-A24 cells, flow cytometry, 100 ug/mL peptide
parameterMeasured: MFI (solvent ratio)

Exercise: Looking for the measured MFI (solvent ratio) of VYILLDESNF [FAM83B-derived peptide F176_10] , can you help?
Key: 1.2 ratio to solvent

Exercise: Find the recorded MFI (solvent ratio) belonging to SYMWSFEKAHL [FAM83B-derived peptide F245_11] and report it.
Key: 1.5 ratio to solvent

Exercise: Could you tell me which MFI (solvent ratio) is on file for TYQHSVSSL [FAM83B-derived peptide F305_9] ?
Key: 1.1 ratio to solvent

Exercise: Reported MFI (solvent ratio) for KVMYGSYSYMWSF [FAM83B-derived peptide F238_13] : what is it?
Key: 1.2 ratio to solvent

Exercise: Reported MFI (solvent ratio) for RFLQQRMPTL [FAM83B-derived peptide F475_10] : what is it?
Key: 1.9 ratio to solvent

Exercise: Data request, read-out MFI (solvent ratio), for NYIEPHYKEW [FAM83B-derived peptide F18_10]
Key: 1 ratio to solvent

Exercise: Which MFI (solvent ratio) value belongs to RLCSSSDTLV [FAM83B-derived peptide F799_10] ?
Key: 2.1 ratio to solvent

Exercise: Suppose we examine the binder FLQQRMPTL [FAM83B-derived peptide F476_9] ; what MFI (solvent ratio) value has been reported?
Key: 2 ratio to solvent

Exercise: Please give the measured MFI (solvent ratio) for this binder: VIALVMDIFT [FAM83B-derived peptide F149_10]
Key: 1.3 ratio to solvent
